For each record, write down the corresponding other: ΔH.
# STUDY_SYSTEM: T1, Kap104p, P38217
# T1 chain: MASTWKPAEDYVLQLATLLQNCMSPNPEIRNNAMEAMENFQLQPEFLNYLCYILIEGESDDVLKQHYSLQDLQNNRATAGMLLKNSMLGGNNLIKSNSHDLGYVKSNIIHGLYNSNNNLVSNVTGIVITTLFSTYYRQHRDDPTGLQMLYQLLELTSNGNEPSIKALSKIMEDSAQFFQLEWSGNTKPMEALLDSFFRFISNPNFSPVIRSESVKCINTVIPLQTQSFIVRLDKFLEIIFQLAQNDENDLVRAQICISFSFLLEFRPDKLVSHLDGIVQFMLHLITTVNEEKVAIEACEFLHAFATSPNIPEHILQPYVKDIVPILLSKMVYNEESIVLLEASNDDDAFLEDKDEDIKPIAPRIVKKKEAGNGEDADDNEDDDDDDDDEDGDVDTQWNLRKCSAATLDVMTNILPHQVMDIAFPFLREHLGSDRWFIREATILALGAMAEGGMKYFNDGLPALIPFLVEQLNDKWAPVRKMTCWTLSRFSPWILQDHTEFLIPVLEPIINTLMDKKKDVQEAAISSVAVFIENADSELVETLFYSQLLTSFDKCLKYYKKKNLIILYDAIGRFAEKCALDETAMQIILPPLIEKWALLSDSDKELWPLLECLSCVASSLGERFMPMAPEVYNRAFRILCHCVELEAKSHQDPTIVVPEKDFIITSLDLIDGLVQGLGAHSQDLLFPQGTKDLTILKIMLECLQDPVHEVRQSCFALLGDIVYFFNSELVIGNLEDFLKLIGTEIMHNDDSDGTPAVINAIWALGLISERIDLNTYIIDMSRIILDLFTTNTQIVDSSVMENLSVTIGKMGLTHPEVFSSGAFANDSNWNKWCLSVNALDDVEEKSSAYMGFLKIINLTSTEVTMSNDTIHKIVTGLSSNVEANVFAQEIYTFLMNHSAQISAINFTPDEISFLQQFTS
# ASSAY_NAME: ITC
# ASSAY_SETUP: chain shown with the change;; parent: -10.0 ± 0.5
Answers are plain numbers, in kcal/mol.

Solved entries:
BINDER: RDRNDRDRDYNHRSGGNHAAAARGGRGGYNRRNNGYHPYNR (domain or fragment, S. cerevisiae, UniProt Q99383 494-534, looked up, Hrp1p NLS, residues 494-534; source: E. coli BL21(DE3), purified (amylose resin, cation exchange)) [MBP–Hrp1p NLS 512RRNG515/AAAA]
OBSERVED_PROPERTY: other: ΔH
REPORTED_MEASUREMENT: -8.3

BINDER: RDRNDRDRDYNHRSGGNHRRNGAAARGGYNRRNNGYHPYNR (domain or fragment, S. cerevisiae, UniProt Q99383 494-534, looked up, Hrp1p NLS, residues 494-534; source: E. coli BL21(DE3), purified (amylose resin, cation exchange)) [MBP–Hrp1p NLS 516RGG518/AAA]
OBSERVED_PROPERTY: other: ΔH
REPORTED_MEASUREMENT: -8.3

BINDER: RDRNDRDRDYNHAAAANHRRNGRGGRGGYNRRNNGYHPYNR (domain or fragment, S. cerevisiae, UniProt Q99383 494-534, looked up, Hrp1p NLS, residues 494-534; source: E. coli BL21(DE3), purified (amylose resin, cation exchange)) [MBP–Hrp1p NLS 506RSGG509/AAAA]
OBSERVED_PROPERTY: other: ΔH
REPORTED_MEASUREMENT: -12.6

Which other: ΔH is listed for RDRNDRDRDYNHRSGGNHRRNGRGGAAAAARRNNGYHPYNR (domain or fragment, S. cerevisiae, UniProt Q99383 494-534, looked up, Hrp1p NLS, residues 494-534; source: E. coli BL21(DE3), purified (amylose resin, cation exchange)) [MBP–Hrp1p NLS 519RGGYN523/AAAAA] ? -14.2
